Assay: soluble on expression in E. coli; label from the status in PepcDB or PDB records
MEASURED_ATTRIBUTE: soluble on expression in E. coli

input_sequence=MSAEYGQYGYYGGAGGAQTTTTPAAALAASIPATSVYGEQRPTFSEDGTGAPYSTILNLVGSAAVNSDISYDTSSKDPHMIRARVFIGNIARAIITRDDIIELFRPFGKIIAVNYFAQQGFGFVQFNEAGSADESCRSLNGMSWKACCLDVHLAMLGSLRKPTGNEGRQGNTIAPAPLPVGKPLTQHAVDTSAQSAKRPYEDEEYEIFKQNKRNKQFANGDTTINEQLAPNEMCDTMVCGYCRFVTSDFEEFKEHRIAGCNKYKDPEEPRHRLKCATCSQRFLGAWGLLEHLTDFHRMLLYTEEKMTPNDLAQMRGGSVSTPSSIPETPASGSAAPAAPNSANSTPSHHIVEGAPLSYSSNNGTPQI result="not soluble"
input_sequence=MQLKTEYGKIDPYITKDGSIIRELMHPAIHGNSGQSLAEATVPAGGQTMLHKHAVAEEIYHITEGCGIMTLGGQEFEIRKGDTVCILPGTPHRIMNTGEKELKILCCCAPAYSHEDTELMKLEHHHHHH result=soluble
input_sequence=MAHHHHHHMKTFIGHFNNNALFSRNSFTNKSLRARKYTKNILSLKNLIYSSFFLYSTMNKVIGTHSGRFHTDEILATVMLKFLPEYKDAKIIRTRDQTKLDTCDIVVDVGGVYDHENKRYDHHQKEFEGTLDDKHTIRLSSAGLIYKHYGKEVLRKGFSITDEEKINVLYEKLYTSFIESVDALDNGINQYEGQPKYQINTTIQCRVNRFNPTFLEDDVDENERFMEAAKIVKQEFVHFVTYYSDVWYMAKSIVRESILDRFNFHKSGRVIYLQKYCPYTEHLYDLEQELNIQDEILYCIYSDRYNNFRCTAISKKNEPFVLRLPFPASFRGLKDEQLQTVSKIPGLTFVHYSGFTSAGENIESLVKLVEASLKENNIVY result="not soluble"
input_sequence=MRPNYTVSSSGTNKGSVLAVCNTTYYKSNKLISKNEITLYKGFRSLSTNHKIETIVHEFGHGFGLGHVKTKNAIMLDKGFINKTKPQTDDFNGIKALYKLEHHHHHH result="not soluble"
input_sequence=MGSDKIHHHHHHQGPQCNHAQLPFQQMTPVPYDSTPYSPQDTMPEQCSNPEVEAYIADWEAGKIDFTTIKANDSIAADQRFCKTLDDDGNISEVKDCDRTKSPVGYIWKELSDSPVVIGITDGGKSDHAPHFHGQPECYYVVNGEGQTLADNQFKKLGTGQYFYIPGATIHNTPIMSEKGLGVIYWYPNNAHFDGFKYYWRKDVKNLRVAEEAFDRVDAIRKRDLNLGPYGTNEAFFKK result="not soluble"
input_sequence=MSLNTPQSAIIPDHAQAGIFIEADFAANRLNDIKAACRASLDALTALKARFPDDILGLTIAFGSKAWATFGHTDEGSEIKPFSEMGNGLAPSTQHDMSIHIQSFRQNAAYALAQSVLGAFGDSICVASEEHGLRLYQDRGLDGFVDGTENPQGDENVREVAIIPEGKPDAGGSYVLLQKYLHDLKKWDAVPVAEQEASVGRGKETDDEFGRDVRLPDSHLGRVNLKENGVGLKIVRRSLPFGKISGEHGLMFTAYCRTLHNIEAQLLSMFGDTDGKTDLLLRHLSAAVSGGYYYAPSVERLQNLEGGSHHHHHH result=soluble
